# System: Saccharomyces cerevisiae
# test_summary: protein stability index of tFT-peptide fusion (C-terminal peptide) (PSI (0-1 scale)); higher = more stable (slower turnover)
# measurement_parameters: genetic background: wild type; temperature: 30 C
quantity: protein stability index

>>> numeric_value("VLGCWEAPFVRC")
0.62
>>> numeric_value("PPRPPFPLPSPL")
0.703
>>> numeric_value("PPPRPTHSRPGP")
0.64
>>> numeric_value("GGGVRWRVGRGG")
0.686
>>> numeric_value("VVFTSISFGLFV")
0.572
>>> numeric_value("ESGGGGGGGRER")
0.573
>>> numeric_value("GGCCLWVGFPGG")
0.696
>>> numeric_value("GKEWRGSGGMRR")
0.646
>>> numeric_value("VSVFSLFLFLRV")
0.421
>>> numeric_value("RSRGSRNGKWVW")
0.703
>>> numeric_value("FFVGAGATEGLG")
0.735
>>> numeric_value("VCARSVLFFWAA")
0.782
>>> numeric_value("PPPPSLVPPSPL")
0.677
>>> numeric_value("LTSWAKRMGLGD")
0.731
>>> numeric_value("HPRRRPPPPSFP")
0.611
>>> numeric_value("MFDSHQWVCIKD")
0.785
>>> numeric_value("RRAPLRNTSRHR")
0.663
>>> numeric_value("CINDSEYHSTMF")
0.741
>>> numeric_value("PLWVFFRFSPNL")
0.662
>>> numeric_value("GYRNIEYGFGSG")
0.575
>>> numeric_value("GNWRGLRLMSAP")
0.76
>>> numeric_value("VRESLGANACSR")
0.69
>>> numeric_value("VGRANLSVIRKV")
0.436
>>> numeric_value("FRFSCLFSLFLS")
0.224
>>> numeric_value("LSFAGLPFCPGL")
0.722
>>> numeric_value("VWVGSLWEHPTV")
0.781
>>> numeric_value("SLRLPPPTDTDS")
0.681
>>> numeric_value("GPPFAPASPVPL")
0.761
>>> numeric_value("FSLFGVGQITFL")
0.683
>>> numeric_value("RRGRGGSGGSAP")
0.734
>>> numeric_value("PPPPPLHSSPWL")
0.737
>>> numeric_value("CLTGWFGIFSAP")
0.734
>>> numeric_value("PPPSPPSPLSPP")
0.675
>>> numeric_value("PPSLPPPIHLPL")
0.646
>>> numeric_value("VFACVHPLASLT")
0.681
>>> numeric_value("VVWLWGAGWGCD")
0.747
>>> numeric_value("VSLCYGGGFWGG")
0.722
>>> numeric_value("CVLVVCRFTGDW")
0.508
>>> numeric_value("PPRASPRMPAGC")
0.715
>>> numeric_value("QPRPSISGLSPT")
0.642
>>> numeric_value("NEEVAKKKKIRV")
0.667

====

# Test system: Saccharomyces cerevisiae
# test_summary: protein stability index of tFT-peptide fusion (C-terminal peptide) (PSI (0-1 scale)); higher = more stable (slower turnover)
# measurement_parameters: genetic background: wild type; temperature: 30 C
quantity: protein stability index

>>> numeric_value("PSGSFPPCLGSP")
0.653
>>> numeric_value("AGRAPRGSWECS")
0.719
>>> numeric_value("GGTPGSYDIIGV")
0.728
>>> numeric_value("GVCRFFCLVFCS")
0.466
>>> numeric_value("RIADSLTPAHPA")
0.699
>>> numeric_value("RSLPLAPPLAPL")
0.742
>>> numeric_value("DLPRLLLSPSLP")
0.67
>>> numeric_value("LPLSPRCFSLLG")
0.677
>>> numeric_value("VRHSCRTTTPPS")
0.708
>>> numeric_value("KNIERKKNTKIR")
0.714
>>> numeric_value("HGLVLLCINDIV")
0.631
>>> numeric_value("LLQFRATFPTTV")
0.721
>>> numeric_value("VVGVLRVRSGEN")
0.606
>>> numeric_value("RVLGEGKCCIRV")
0.606
>>> numeric_value("VRSLFSFRLRGS")
0.633
>>> numeric_value("PPPLLPPLDAPS")
0.721
>>> numeric_value("RVWERGGGGDGC")
0.645
>>> numeric_value("PCINGSASRRSG")
0.619
>>> numeric_value("GDINRNTRYLEK")
0.556

====

Parameter: protein stability index. Scope: all listed entries.
# Tested on: Saccharomyces cerevisiae
# test_summary: protein stability index of tFT-peptide fusion in wild type (PSI (0-1 scale)); higher = more stable (slower turnover)
# measurement_parameters: genetic background: wild type
quantity: protein stability index

>>> numeric_value("VRGHVGGWRLVG")
0.131
>>> numeric_value("LVVYLWCVACIN")
0.0141
>>> numeric_value("CTSCGYKFRKNN")
0.23
>>> numeric_value("RLIQPLPVAFLN")
0.0928
>>> numeric_value("CTSCGYKFRYNN")
0.369
>>> numeric_value("AITLWMCPLLLR")
0.267
>>> numeric_value("RVQRLDAIYFRI")
0.426
>>> numeric_value("CLVSLPSLLFFR")
0.0935
>>> numeric_value("AIHLPMCPLLLR")
0.278
>>> numeric_value("VRGAVGGWRLTG")
0.269
>>> numeric_value("GLYSCSVGCWFR")
0.451
>>> numeric_value("LLVYLSCVACIN")
0.0174
>>> numeric_value("MITLPMCPLLLR")
0.302
>>> numeric_value("ARWRVGTWRGAS")
0.535
>>> numeric_value("VYGAVGGWRLVG")
0.137
>>> numeric_value("CLTSLPILLFFR")
0.0745
>>> numeric_value("FSIRWTFRYWVN")
0.0207
>>> numeric_value("ARLRVGLWRGAS")
0.581
>>> numeric_value("ARWRLGLWRGAS")
0.458
>>> numeric_value("CLVSSPILLFFR")
0.272
>>> numeric_value("AITLPYCPLLLR")
0.18
>>> numeric_value("KKHKKGQKQEIN")
0.591
>>> numeric_value("FHMRWTFRYWVN")
0.0327
>>> numeric_value("GDYMCSVGCWFR")
0.462
>>> numeric_value("GKHKKGQKQKIN")
0.133
>>> numeric_value("FSMRDTFRYWVN")
0.0684
>>> numeric_value("VRGAVGGWRLFG")
0.333
>>> numeric_value("FSMWWTFRYWVN")
0.077
>>> numeric_value("CLVSLPKLLFFR")
0.0835
>>> numeric_value("APWRVGLWRGAS")
0.512
>>> numeric_value("RSSRVLLPLYFR")
0.346
>>> numeric_value("FSMRWTDRYWVN")
0.0929
>>> numeric_value("VRWAVGGWRLVG")
0.0824
>>> numeric_value("RSLRVLLPLYWR")
0.301
>>> numeric_value("KTSCGYKFRTNN")
0.225
>>> numeric_value("VRGAVGGWRLVGM")
0.621
>>> numeric_value("RVTRLDAIYFRIV")
0.0601
>>> numeric_value("AITLNMCPLLLR")
0.261
>>> numeric_value("RYLRVLLPLYFR")
0.335
>>> numeric_value("PDKRNHLRKLLN")
0.205
>>> numeric_value("AITLPMCVLLLR")
0.0936
>>> numeric_value("RSLRVLLPLYFRH")
0.284
>>> numeric_value("LVVYLSCVACIP")
0.0232
>>> numeric_value("VRGAVGGYRLVG")
0.658
>>> numeric_value("AITLPMCPLFLR")
0.184
>>> numeric_value("RVTRLDAIYFRP")
0.643
>>> numeric_value("PDKRYHLIKLLN")
0.0495
>>> numeric_value("ARWRVGLWAGAS")
0.599
>>> numeric_value("GLLMCSVGCWFR")
0.22
>>> numeric_value("FSMRWTFRYWVD")
0.46
>>> numeric_value("KKHKKGQKQKIK")
0.634
>>> numeric_value("AITKPMCPLLLR")
0.458
>>> numeric_value("VLVSLPILLFFR")
0.0972
>>> numeric_value("CTSCCYKFRTNN")
0.211

====

# Test system: Saccharomyces cerevisiae
# test_summary: protein stability index of tFT-peptide fusion (C-terminal peptide) (PSI (0-1 scale)); higher = more stable (slower turnover)
# measurement_parameters: genetic background: das1 deletion; temperature: 37 C
Everything with protein stability index lower than 0.6 is not fulfilled; everything else, including exactly 0.6, is fulfilled.

>>> class_assignment("LRSVLGWGLFLA")
"fulfilled"
>>> class_assignment("FFCRWGSTVTLL")
"fulfilled"
>>> class_assignment("CGLLSALSCLVF")
"not fulfilled"
>>> class_assignment("LCLLCWIPCSFR")
"fulfilled"
>>> class_assignment("RKNSQKILKLSG")
"fulfilled"
>>> class_assignment("SPVPITVAVGCR")
"not fulfilled"
>>> class_assignment("VFFLLSVYMVMM")
"not fulfilled"
>>> class_assignment("ISHLQCFFVVML")
"not fulfilled"
>>> class_assignment("QVSHLFAAVQLA")
"fulfilled"
>>> class_assignment("VVFSLLLWLFIS")
"not fulfilled"
